Consider the following compounds; for each one, report its pIC50.
Test system: A. baumannii (ATCC17978)
Assay: 50% Growth Inhibitory Concentration (IC50) Determination Assay, A. baumannii
Assay type: cell-based
Conditions: Acinetobacter baumannii, growth inhibition, Iso-Sensitest broth, OD 600 nm over 16 h
Give bare numbers, as −log10 of the molar value.

COMPOUND	pIC50
CNc1cc(F)c(F)c2c1[nH]c1ncc(-c3cnc4c(c3)c(=O)c(C(=O)O)cn4C)c(N3CC[C@H]4CN(C)C[C@H]43)c12 [Example 1.26E]	7.41

QUERY: Can you share its pIC50? I mean this compound: CNc1cc(F)c(C#N)c2c1[nH]c1ncc(-c3cnc4c(c3)c(=O)c(C(=O)O)cn4C)c(N3CC[C@H]4CN(C)C[C@H]43)c12 [Example 1.03D]
RESULT: 7.35

====

Test system: S. aureus (ATCC29213)
Assay: 50% Growth Inhibitory Concentration (IC50) Determination Assay, S. aureus
Assay type: cell-based
Settings: Staphylococcus aureus, growth inhibition, Iso-Sensitest broth, OD 600 nm over 16 h
pIC50: −log10 of the molar value.
ENDPOINT_LABEL: pIC50

MOLECULE	pIC50
CNc1cc(F)c(C#N)c2c1[nH]c1ncc(-c3cnc4c(c3)c(=O)c(C(=O)O)cn4C)c(N3CC[C@H]4CN(C)C[C@H]43)c12 [Example 1.03D]	> 7.01
CNc1cc(F)c(F)c2c1[nH]c1ncc(-c3ccc4ccc(C(=O)O)c(=O)n4c3)c(N3CC[C@H]4CN(C)C[C@H]43)c12 [Example 1.34D]	> 7.01

For the next question, use this molecule.
QUERY: Can you share its pIC50? I mean this molecule: CNc1cc(F)c(F)c2c1[nH]c1ncc(-c3cnc4c(c3)c(=O)c(C(=O)O)cn4C)c(N3CC[C@H]4CN(C)C[C@H]43)c12 [Example 1.26E]
RESULT: > 7.01

====

Test: Plasma stability assay in mouse plasma
Type: in vitro ADME, CD-1 mouse
Details: 10 μM prodrug, 37° C., prodrug remaining at 30 min compared to 0 min
Consider the following molecules; for each one, report its Percent Remaining (%) M.
Answers are plain numbers, in %.

Some molecules with known Percent Remaining (%) M results, for comparison:
MOLECULE	Percent Remaining (%) M
CN1C[C@H]2CCN(c3c(-c4cnc5c(c4)c(=O)c(C(=O)O)cn5C)cnc4[nH]c5c(N(C)C(=O)OCOC(=O)/C=C/C(=O)O)cc(F)c(F)c5c34)[C@H]2C1	56.0
CC(=O)OC(C)OC(=O)N(C)c1cc(F)c(C#N)c2c1[nH]c1ncc(-c3cnc4c(c3)c(=O)c(C(=O)O)cn4C)c(N3CC[C@H]4CN(C)C[C@H]43)c12 (stereo partly drawn)	4.7

For the next question, use this molecule.
QUERY: Can you share its Percent Remaining (%) M? I mean this molecule: CNc1cc(F)c(F)c2c1[nH]c1ncc(-c3ccc4ccc(C(=O)OC(C)OC(=O)OC(C)C)c(=O)n4c3)c(N3CC[C@H]4CN(C)C[C@H]43)c12 (stereo partly drawn)
RESULT: 0.1

====

Consider the following compounds; for each one, report its log10(solubility).
Assay: Lyophilisation Solubility Assay (LYSA)
Assay type: physicochemical
Settings: aqueous buffer, thermodynamic from solid; 0.05 M phosphate buffer, pH 6.5
// do not treat as linear: log10 of solubility, unit µg/mL

Some compounds with known log10(solubility) results, for comparison:
COMPOUND	ENDPOINT_LABEL	ASSAY_VALUE
CNc1cc(F)c(F)c2c1[nH]c1ncc(-c3ccc4ccc(C(=O)O)c(=O)n4c3)c(N3CC[C@H]4CN(C)C[C@H]43)c12 [Example 1.34D]	log10(solubility)	1.73
CNc1cc(F)c(F)c2c1[nH]c1ncc(-c3ccc4ccc(C(=O)OCCOC(=O)[C@@H](N)C(C)C)c(=O)n4c3)c(N3CC[C@H]4CN(C)C[C@H]43)c12	log10(solubility)	2.50
CNc1cc(F)c(C#N)c2c1[nH]c1ncc(-c3cnc4c(c3)c(=O)c(C(=O)OCCOC(=O)[C@@H](N)C(C)C)cn4C)c(N3CC[C@H]4CN(C)C[C@H]43)c12	log10(solubility)	2.68
CN1C[C@@H]2CCN(c3c(-c4cnc5c(c4)c(=O)c(C(=O)O)cn5C)cnc4[nH]c5c(N(C)C(=O)OCOP(=O)(O)O)cc(F)c(F)c5c34)[C@@H]2C1	log10(solubility)	2.77
CNc1cc(F)c(C#N)c2c1[nH]c1ncc(-c3cnc4c(c3)c(=O)c(C(=O)O)cn4C)c(N3CC[C@H]4CN(C)C[C@H]43)c12 [Example 1.03D]	log10(solubility)	2.29

For the next question, use this compound.
QUERY: Can you share its log10(solubility)? I mean this compound: `CN1C[C@@H]2CCN(c3c(-c4ccc5ccc(C(=O)O)c(=O)n5c4)cnc4[nH]c5c(N(C)C(=O)OCOC(=O)/C=C/C(=O)O)cc(F)c(F)c5c34)[C@@H]2C1`
RESULT: 2.83

====

Consider the following molecules; for each one, report its solubility.
Test: Lyophilisation Solubility Assay (LYSA)
Assay type: physicochemical
Details: aqueous buffer, thermodynamic from solid; 0.05 M phosphate buffer, pH 6.5

Some molecules with known solubility results, for comparison:
COMPOUND	solubility
CN1C[C@@H]2CCN(c3c(-c4cnc5c(c4)c(=O)c(C(=O)O)cn5C)cnc4[nH]c5c(N(C)C(=O)OCOC(=O)/C=C/C(=O)O)cc(F)c(F)c5c34)[C@@H]2C1	> 945 µg/mL
CN1C[C@@H]2CCN(c3c(-c4cnc5c(c4)c(=O)c(C(=O)O)cn5C)cnc4[nH]c5c(N(C)C=O)cc(F)c(C#N)c5c34)[C@@H]2C1	> 730 µg/mL
CN1C[C@@H]2CCN(c3c(-c4cnc5c(c4)c(=O)c(C(=O)O)cn5C)cnc4[nH]c5c(N(C)S(=O)(=O)O)cc(F)c(F)c5c34)[C@@H]2C1	> 685 µg/mL

State the recorded solubility for every item in the following list.
1. CNc1cc(F)c(F)c2c3c(N4CC[C@H]5CN(C)C[C@H]54)c(-c4ccc5ccc(C(=O)O)c(=O)n5c4)cn(COP(=O)(O)O)c-3nc12
2. CN1C[C@@H]2CCN(c3c(-c4cnc5c(c4)c(=O)c(C(=O)O)cn5C)cnc4[nH]c5c(N(C)C=O)cc(F)c(F)c5c34)[C@@H]2C1
3. CN1C[C@@H]2CCN(c3c(-c4cnc5c(c4)c(=O)c(C(=O)O)cn5C)cnc4[nH]c5c(N(C)C(=O)OCOP(=O)(O)O)cc(F)c(C#N)c5c34)[C@@H]2C1
4. CN1C[C@@H]2CCN(c3c(-c4cnc5c(c4)c(=O)c(C(=O)O)cn5C)cnc4[nH]c5c(N(C)C(=O)OCOC(=O)/C=C/C(=O)O)cc(F)c(C#N)c5c34)[C@@H]2C1

RESULT:
1: > 1000 µg/mL; 2: > 783 µg/mL; 3: > 595 µg/mL; 4: > 895 µg/mL
